Data provenance is paper PMC5052559.

# Assayed target: WT HSC70-NBD (Homo sapiens, UniProt P11142)
# Construct: WT HSPA8 (HSC70) residues 1 to 381; GST (N, cleaved yes); made in house; host or cells: E. coli BL21-AI (expressed as described for FL-HSP72)
# Sequence (P11142 1-381): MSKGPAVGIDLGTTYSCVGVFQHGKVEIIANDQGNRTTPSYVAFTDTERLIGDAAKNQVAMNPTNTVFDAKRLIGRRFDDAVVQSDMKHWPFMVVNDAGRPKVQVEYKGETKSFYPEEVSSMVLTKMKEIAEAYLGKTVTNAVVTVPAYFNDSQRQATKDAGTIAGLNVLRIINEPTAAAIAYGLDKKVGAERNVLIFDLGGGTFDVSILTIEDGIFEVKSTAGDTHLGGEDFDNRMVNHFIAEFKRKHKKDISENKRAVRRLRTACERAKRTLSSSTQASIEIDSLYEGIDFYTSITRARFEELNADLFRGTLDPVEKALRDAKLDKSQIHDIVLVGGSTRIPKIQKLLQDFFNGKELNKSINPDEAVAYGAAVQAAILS
# Protocol summary: SPR binding to wild-type HSC70-NBD
# Condition parameters: SPR, 25 °C; mean ± SD; No binding = binding level ≤10RU at 1mM
Assay readout: Kd (µM)

> print(dat)
                                   compound  meas.value
1  Nc1nc2ncnc(N)c2[nH]1 [Compound 6, 8-aminoadenine, reference compound]        2100
2  Nc1nc2c(ncn2[C@@H]2O[C@H](COP(=O)(O)OP(=O)(O)O)[C@@H](O)[C@H]2O)c(=O)[nH]1 [GDP, reference compound]         223
3  Nc1ncnc2c1ncn2[C@@H]1O[C@H](CO)[C@@H](O)[C@H]1O [Adenosine, adenosine, reference compound]         165
4  Nc1ncnc2c1nc(N)n2[C@@H]1O[C@H](CO)[C@@H](O)[C@H]1O [Compound 4, 8-aminoadenosine, reference compound]           8
5  Nc1ncnc2c1ncn2[C@@H]1O[C@H](COP(=O)(O)OP(=O)(O)OP(=O)(O)O)[C@@H](O)[C@H]1O [ATP, reference compound]        0.33

(1) Nc1ncnc2c1ncn2[C@@H]1O[C@H](COP(=O)(O)OP(=O)(O)O)[C@@H](O)[C@H]1O [ADP, reference compound]
(2) OC[C@H]1C[C@@H](Nc2ncnc3ccccc23)[C@H](O)[C@@H]1O
Rank 1 against 2 by their Kd values and give the higher one. API: response body contains the label of the selected item.
2

* * *

# Assayed target: HSC70-NBD S275A mutant (Homo sapiens, UniProt P11142, S275A)
# Construct: WT HSPA8 (HSC70) residues 1 to 381; GST (N, cleaved yes)
# Sequence (P11142 1-381 S275A): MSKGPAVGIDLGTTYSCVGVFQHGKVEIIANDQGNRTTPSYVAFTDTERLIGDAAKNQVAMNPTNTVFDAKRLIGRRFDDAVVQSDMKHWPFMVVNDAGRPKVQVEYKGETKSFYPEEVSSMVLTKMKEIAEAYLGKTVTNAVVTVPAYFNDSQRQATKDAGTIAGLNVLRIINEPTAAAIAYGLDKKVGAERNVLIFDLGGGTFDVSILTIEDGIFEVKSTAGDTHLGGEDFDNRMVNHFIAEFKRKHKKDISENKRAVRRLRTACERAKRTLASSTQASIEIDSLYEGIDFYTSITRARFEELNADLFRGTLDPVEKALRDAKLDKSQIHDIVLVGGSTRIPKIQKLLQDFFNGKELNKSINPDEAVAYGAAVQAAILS
# Protocol summary: SPR binding to S275A HSC70-NBD mutant
# Condition parameters: n = 3
Assay readout: Kd (µM)

> print(dat)
                                   compound  meas.value
1  Nc1ncnc2c1ncn2[C@@H]1O[C@H](COP(=O)(O)OP(=O)(O)OP(=O)(O)O)[C@@H](O)[C@H]1O [ATP, reference compound]         2.1

(1) Nc1ncnc2c1ncn2[C@@H]1O[C@H](COP(=O)(O)OP(=O)(O)O)[C@@H](O)[C@H]1O [ADP, reference compound]
(2) Nc1ncnc2c1ncn2[C@@H]1O[C@H](CO)[C@@H](O)[C@H]1O [Adenosine, adenosine, reference compound]
Please choose the item with the lower Kd value from this pair: 1 and 2 API: response body contains the label of the selected item.
1

* * *

# Assayed target: WT HSC70-NBD (Homo sapiens)
# Construct: WT HSPA8 (HSC70) residues 1 to 381; GST (N, cleaved yes); made in house; host or cells: E. coli BL21-AI (expressed as described for FL-HSP72)
# Protocol summary: SPR binding to wild-type HSC70-NBD
# Condition parameters: SPR, 25 °C; mean ± standard deviation or standard error; triplicate unless marked duplicate/single
pKd: −log10 of the molar value.
Assay readout: pKd

> print(dat)
                               smiles.input               assayed.target  assay.readout  meas.value
1                       COc1ccc2ncnc(N)c2c1  WT HSC70-NBD (Homo sapiens)            pKd        3.00
2  OC[C@H]1C[C@@H](Nc2ncnc3cccc(OCc4ccccc4)c23)[C@H](O)[C@@H]1O  WT HSC70-NBD (Homo sapiens)            pKd        3.43
3                        Cc1ccc2c(N)ncnc2c1  WT HSC70-NBD (Homo sapiens)            pKd        3.10

(A) CN1N=C(N)c2c[nH]c3ncnc1c23
(B) COc1cccc2ncnc(N[C@@H]3C[C@H](CO)[C@@H](O)[C@H]3O)c12
Please choose the item with the lower pKd value from this pair: A and B API: response body contains the label of the selected item.
A
(A: 2.46, B: 2.98)

* * *

# Assayed target: WT HSC70-NBD (Homo sapiens)
# Construct: WT HSPA8 (HSC70) residues 1 to 381; GST (N, cleaved yes); made in house; host or cells: E. coli BL21-AI (expressed as described for FL-HSP72)
# Protocol summary: SPR binding to wild-type HSC70-NBD
# Condition parameters: calculated using the SPR Kd on WT HSC70-NBD
Assay readout: LE (ligand efficiency)

Example compounds with recorded LE (ligand efficiency):
> print(dat)
                                   compound               assayed.target  meas.value
1  Nc1ncnc2c1nc(N)n2[C@@H]1O[C@H](CO)[C@@H](O)[C@H]1O [Compound 4, 8-aminoadenosine, reference compound]  WT HSC70-NBD (Homo sapiens)        0.35
2  OC[C@H]1C[C@@H](Nc2ncnc3cccc(OCc4ccccc4)c23)[C@H](O)[C@@H]1O  WT HSC70-NBD (Homo sapiens)        0.17
3  Nc1nc2c(ncn2[C@@H]2O[C@H](COP(=O)(O)OP(=O)(O)O)[C@@H](O)[C@H]2O)c(=O)[nH]1 [GDP, reference compound]  WT HSC70-NBD (Homo sapiens)        0.18

(I) Nc1ncnc2c1ncn2[C@@H]1O[C@H](COP(=O)(O)OP(=O)(O)O)[C@@H](O)[C@H]1O [ADP, reference compound]
(II) OC[C@H]1C[C@@H](Nc2ncnc3cccc(OCc4ccccn4)c23)[C@H](O)[C@@H]1O
Please choose the item with the lower LE (ligand efficiency) value from this pair: I and II API: response body contains the label of the selected item.
II

* * *

# Assayed target: WT HSC70-NBD (Homo sapiens)
# Construct: WT HSPA8 (HSC70) residues 1 to 381; GST (N, cleaved yes); made in house; host or cells: E. coli BL21-AI (expressed as described for FL-HSP72)
# Protocol summary: SPR binding to wild-type HSC70-NBD
# Condition parameters: calculated using the SPR Kd on WT HSC70-NBD
Assay readout: LE (ligand efficiency)

(a) N#Cc1ccc(COC[C@H]2C[C@@H](Nc3ncnc4cccc(OCc5ccccc5)c34)[C@H](O)[C@@H]2O)cc1 [Compound 29]
(b) Nc1ncnc2c1ncn2[C@@H]1O[C@H](CO)[C@@H](O)[C@H]1O [Adenosine, adenosine, reference compound]
Rank a against b by their LE (ligand efficiency) values and give the higher one. API: response body contains the label of the selected item.
b
(b: 0.28, a: 0.10)

(A) Nc1nc2ncnc(N)c2[nH]1 [Compound 6, 8-aminoadenine, reference compound]
(B) OC[C@H]1C[C@@H](Nc2ncnc3cccc(OCc4ccc(Cl)c(Cl)c4)c23)[C@H](O)[C@@H]1O [Compound 27]
Please choose the item with the lower LE (ligand efficiency) value from this pair: A and B API: response body contains the label of the selected item.
B

* * *

# Assayed target: S275F HSC70-NBD (Homo sapiens, UniProt P11142, S275F)
# Construct: WT HSPA8 (HSC70) residues 1 to 381; GST (N, cleaved yes); made in house; host or cells: E. coli BL21-AI (expressed as described for FL-HSP72)
# Sequence (P11142 1-381 S275F): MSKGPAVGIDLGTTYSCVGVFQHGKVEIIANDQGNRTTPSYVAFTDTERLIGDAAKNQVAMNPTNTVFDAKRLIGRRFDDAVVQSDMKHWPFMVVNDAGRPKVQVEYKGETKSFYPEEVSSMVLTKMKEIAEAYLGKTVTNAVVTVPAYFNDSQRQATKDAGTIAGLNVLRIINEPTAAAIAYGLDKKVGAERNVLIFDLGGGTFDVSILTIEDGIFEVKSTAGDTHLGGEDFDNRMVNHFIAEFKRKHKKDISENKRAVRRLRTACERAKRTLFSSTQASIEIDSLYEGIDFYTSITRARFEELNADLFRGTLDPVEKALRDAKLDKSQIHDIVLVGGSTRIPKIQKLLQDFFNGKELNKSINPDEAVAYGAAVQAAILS
# Protocol summary: SPR binding to S275F HSC70-NBD mutant
Assay readout: binding to S275F HSC70-NBD mutant (in words)

> print(dat)
                                   compound         meas.value
1  Nc1ncnc2c1ncn2[C@@H]1O[C@H](CO)[C@@H](O)[C@H]1O [Adenosine, adenosine, reference compound]  abolished binding
2  N#Cc1ccc(COC[C@H]2O[C@@H](n3c(NCc4ccc(Cl)c(Cl)c4)nc4c(N)ncnc43)[C@H](O)[C@@H]2O)cc1  abolished binding
3  Nc1ncnc2c1ncn2[C@@H]1O[C@H](COP(=O)(O)OP(=O)(O)O)[C@@H](O)[C@H]1O [ADP, reference compound]  abolished binding

* * *

# Assayed target: WT HSC70-NBD (Homo sapiens, UniProt P11142)
# Construct: WT HSPA8 (HSC70) residues 1 to 381; GST (N, cleaved yes); made in house; host or cells: E. coli BL21-AI (expressed as described for FL-HSP72)
# Protocol summary: SPR binding to wild-type HSC70-NBD
# Condition parameters: SPR, 25 °C; mean ± standard deviation or standard error; triplicate unless marked duplicate/single
Assay readout: Kd (mM)

Example molecules with recorded Kd:
> print(dat)
                                   molecule  assay.readout  uom  meas.value
1          Cc1cccc2ncnc(N)c12 [Compound 12]             Kd   mM          12
2  OC[C@H]1C[C@@H](Nc2ncnc3cccc(OCc4ccccn4)c23)[C@H](O)[C@@H]1O [Compound 30]             Kd   mM       0.075
3  OC[C@H]1C[C@@H](Nc2ncnc3cccc(OCc4ccc(Cl)c(Cl)c4)c23)[C@H](O)[C@@H]1O [Compound 27]             Kd   mM        0.85

(A) CNc1ncnc2ccccc12 [Compound 20]
(B) Cc1cccc2c(N)ncnc12 [Compound 14]
(C) COc1cccc2ncnc(N)c12 [Compound 15]
Hey, can you sort those molecules up there by Kd, smallest first? Write the labels in rank order as requested.
C, B, A

(1) COc1cc2ncnc(N)c2cc1OC [Compound 19]
(2) Cc1ccc2ncnc(N)c2c1 [Compound 8]
Rank 1 against 2 by their Kd values and give the higher one. API: response body contains the label of the selected item.
2
(2: 1.4 mM, 1: 0.83 mM)
